Tested on: Plasmodium berghei
Test Summary: Luciferase/luciferin-expressing antifolate-resistant parasites were used to infect a culture of HepG2 cells that were pre-incubated with compounds. Infected hepatocytes emit light due to the luciferase reaction. Assay results are presented as the percent inhibition of light emission compared to control. […]
Assay type: functional
Measurement Setup: sporozoite, FFLUC_HILL_SLOPE 0.622, FFLUC_R_SQUARED 0.84, HEPG2TOX_HILL_SLOPE 8.37, HEPG2TOX_R_SQUARED 0.336, PBLUC_HILL_SLOPE 1, PBLUC_R_SQUARED 0.657, read-out: LUCIFERASE INFECTION ASSAY - IC50
Measurement Label: pIC50
Lab note — pIC50 values are minus log10 of concentrations in M.

Input line: Look at this compound and give its reported pIC50. Cc1cnc(NC(=O)c2ccc(CN3CCCCC3)cc2)s1
Output line: 5.89
